This collection of values is drawn from patent US8168592B2.

experiment: in vitro stability in 10% human plasma, LC-MS/MS
Type: in vitro ADME
assay context: room temperature, 100 ng/ml, 0.17 h
quantity name: remaining at 0.17 h, 100 ng/ml (%)

Ac-WVTHRLAGLLSQSGGVVRKNFVPTDVGPFAF-NH2 [SEQ ID NO: 37]    59
Ac-WVTHQLAGLLSQSGGVVRKNFVPTDVGPFAF-NH2 [SEQ ID NO: 39]    74.2

* * *

experiment: rat pharmacokinetic studies
assay context: rat, IV, 2 mg/kg; mean, n = 3
PEG = not defined here
quantity name: CL (mL/min/kg)
Reply numerically in mL/min/kg, unit not repeated.

SEQ ID NO: 15: 20 kDa PEG conjugate of SEQ ID NO:7 (reductive alkylation) (Ac-WVTHRLAGLLSRSGGVVRK(20 kDa PEG)NFVPTDVGPFAF-NH2)    2.57
SEQ ID NO: 26: PEGylated double homoarginine analog (WVTHXLAGLLSXSGGVVRKNFVPTDVGPFAF; PEGylated; homoarginine residues; CGRP peptide; MOD_RES (1)..(1): …ON; MISC_FEATURE (5)..(5): xaa=homoarginine; MISC_FEATURE (12)..(12): xaa=homoarginine; MISC_FEATURE (19)..(19): PEGylated; MOD_RES (31)..(31): AMIDATION)    1.35
SEQ ID NO: 40: double glutamine analog PEGylated through amine linkage (Ac-WVTHQLAGLLSQSGGVVRK(PEG)NFVPTDVGPFAF-NH2; reading uncertain)    3.12

Please give the measured CL for this substance: SEQ ID NO: 32: PEGylated R11Cit, R18Cit analog (product of SEQ ID NO:31) (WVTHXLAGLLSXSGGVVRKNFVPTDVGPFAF; PEGylated; citrulline at 11 and 18; CGRP peptide; MOD_RES (1)..(1): …ON; MISC_FEATURE (5)..(5): xaa=citrulline; MISC_FEATURE (12)..(12): xaa=citrulline; MISC_FEATURE (19)..(19): PEGylated; MOD_RES (31)..(31): AMIDATION)
0.817

* * *

target desc: CGRP1 receptor (Homo sapiens, UniProt O60894+Q16602)
Construct: SK-N-MC cells express CRLR and RAMP1, which form CGRP1 receptor; endogenous in cells; host or cells: SK-N-MC human neuroblastoma cells
Sequence (Q16602 23-461): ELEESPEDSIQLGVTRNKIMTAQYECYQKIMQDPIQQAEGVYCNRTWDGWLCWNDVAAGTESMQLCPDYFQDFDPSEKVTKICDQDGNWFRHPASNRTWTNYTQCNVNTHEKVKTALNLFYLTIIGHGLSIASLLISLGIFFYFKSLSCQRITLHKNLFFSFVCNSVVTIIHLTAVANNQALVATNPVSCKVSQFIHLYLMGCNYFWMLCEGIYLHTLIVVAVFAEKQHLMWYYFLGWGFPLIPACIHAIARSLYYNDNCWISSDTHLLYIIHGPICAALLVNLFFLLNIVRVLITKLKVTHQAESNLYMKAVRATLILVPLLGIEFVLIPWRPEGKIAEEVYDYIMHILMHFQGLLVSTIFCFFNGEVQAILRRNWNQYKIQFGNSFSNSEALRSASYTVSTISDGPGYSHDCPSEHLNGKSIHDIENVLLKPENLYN
Sequence (O60894 27-148): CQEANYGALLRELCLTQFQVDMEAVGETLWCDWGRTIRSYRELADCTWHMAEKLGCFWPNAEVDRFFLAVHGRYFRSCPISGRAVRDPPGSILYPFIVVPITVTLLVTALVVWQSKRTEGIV
experiment: in vitro CGRP1 receptor mediated cAMP assay in SK-N-MC cells
Assay type: cell-based
assay context: Table 2D; read-out: IC50
quantity name: IC50 (nM)

Ac-WVTHRLAGLLSASGGVVRCNFVPTDVGPFAF-NH2 [compound 772]    2.75

P. Ac-WVTHRLAGLLSRPGGVVRKNFVPTDVGPFAF-NH2 [compound 854]
Q. Ac-WVTHRLAGLLSRSGGVKRNNFVPTDVGPFAF-NH2 [compound 823]
Larger number for IC50: P , or Q ? // output: label of the selected item
P

I. 805 (Ac-WVTHRLAGLLSRSGGVVRC(20 kDa MeO‑PEG)NFVPTDVGPFAF-NH2) [compound 805]
II. 766 (Ac-WVTHRLAGLLSRSGGVVRC(20 kDa MeO‑PEG)NFVPTDVGPFAF-NH2) [compound 766]
Compare I and II by numeric IC50 and name the larger one. Reply with the label of the item you choose.
II
